Below, each of the molecules is paired with its reported pIC50 value.
# assayedTarget: Indoleamine 2,3-dioxygenase 1 (Homo sapiens, UniProt P14902)
# Sequence (P14902 whole entry): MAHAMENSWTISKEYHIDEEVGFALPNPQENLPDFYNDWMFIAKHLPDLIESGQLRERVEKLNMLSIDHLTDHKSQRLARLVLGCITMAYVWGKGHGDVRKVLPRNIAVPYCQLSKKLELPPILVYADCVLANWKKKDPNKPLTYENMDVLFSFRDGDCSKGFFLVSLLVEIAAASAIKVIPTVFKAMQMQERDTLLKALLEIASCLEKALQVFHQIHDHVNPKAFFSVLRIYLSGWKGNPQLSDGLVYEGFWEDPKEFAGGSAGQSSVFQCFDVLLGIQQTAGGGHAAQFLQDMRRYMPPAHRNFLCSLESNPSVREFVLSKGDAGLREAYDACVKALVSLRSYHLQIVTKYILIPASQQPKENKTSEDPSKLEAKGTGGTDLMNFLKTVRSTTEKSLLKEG
# experimentalProtocol: Inhibition of IDO1 in IFNgamma-stimulated human HeLa cells assessed as reduction in kynurenine formation using L-tryptophan as substrate by absorbance based analysis
# Format: cell-based
pIC50: −log10 of the molar value.

Some entries whose results are on file:
INSERT INTO assay_data (structureassmiles, assayedtarget, recordedendpoint, result) VALUES
  ('CC(=O)O[C@H]1CCc2c(ccc3c2C(=O)C(=O)c2c(C)coc2-3)C1(C)C', 'Indoleamine 2,3-dioxygenase 1 (Homo sapiens, UniProt P14902)', 'pIC50', '< 5.00'),
  ('Cc1coc2c1C(=O)C(=O)c1c-2ccc2c1C(=O)C(O)=CC2(C)C', 'Indoleamine 2,3-dioxygenase 1 (Homo sapiens, UniProt P14902)', 'pIC50', '< 5.00');

Read the next record carefully.
Dear colleague, I am looking for the recorded pIC50 of the following molecule: `CCN(CC)C(=O)c1coc2c1C(=O)C(=O)c1c-2ccc2c1C=CC(=O)C2(C)C`
< 5.00
